Reference for the values: patent US20200317802A1

# experimental-target: T1, recombinant human ADAMTS5 (R&D Systems cat #2198-AD) (human, UniProt Q9UNA0 262-622, limits assumed)
# T1 construct: bought protein
# T1 sequence: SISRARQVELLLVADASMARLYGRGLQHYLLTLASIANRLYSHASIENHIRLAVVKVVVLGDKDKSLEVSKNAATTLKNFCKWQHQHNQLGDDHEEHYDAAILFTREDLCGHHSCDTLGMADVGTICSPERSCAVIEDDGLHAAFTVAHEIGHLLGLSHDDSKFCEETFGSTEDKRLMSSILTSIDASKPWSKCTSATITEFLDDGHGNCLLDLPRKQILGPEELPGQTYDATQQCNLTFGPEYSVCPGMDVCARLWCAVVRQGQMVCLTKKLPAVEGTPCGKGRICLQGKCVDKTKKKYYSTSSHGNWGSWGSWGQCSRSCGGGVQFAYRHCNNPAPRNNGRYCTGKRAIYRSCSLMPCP
# measurement-notes: SPR off-rate, Biacore T100, ADAMTS5 immobilised, experiment 1
# Protocol: Species cross-reactivity was initially evaluated via SPR-based off-rate analysis on a Biacore T100 instrument. Nanobodies were tested for binding to human, cynomolgus monkey (“cyno”), guinea pig, mouse, and bovine ADAMTS5. […] Off-rate for each individual Nanobody was determined by fitting a 1:1 interaction model (Langmuir model) onto the individual dissociation curves using the BIA Evaluation software. As a reference, off-rates on human ADAMTS5 were determined in each experiment.
For each entry below, report its koff value.
Answers are plain numbers, in s⁻¹.

Nanobody 2A12 (VHH, tagged as tested (anti-Flag detection, IMAC); also called 02A12) VHH: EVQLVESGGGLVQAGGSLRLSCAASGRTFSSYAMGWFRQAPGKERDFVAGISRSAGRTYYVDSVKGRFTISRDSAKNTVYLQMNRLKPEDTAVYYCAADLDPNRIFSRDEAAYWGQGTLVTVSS; 0.00014
Nanobody 3D01 (VHH, tagged as tested (anti-Flag detection, IMAC); also called 03D01) VHH: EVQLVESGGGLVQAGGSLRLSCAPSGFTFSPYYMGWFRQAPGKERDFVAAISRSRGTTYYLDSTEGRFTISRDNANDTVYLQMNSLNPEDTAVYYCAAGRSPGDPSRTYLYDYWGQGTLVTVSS; 0.00023
Nanobody 2D07 (VHH, tagged as tested (anti-Flag detection, IMAC); also called 02D07; 2D7) VHH: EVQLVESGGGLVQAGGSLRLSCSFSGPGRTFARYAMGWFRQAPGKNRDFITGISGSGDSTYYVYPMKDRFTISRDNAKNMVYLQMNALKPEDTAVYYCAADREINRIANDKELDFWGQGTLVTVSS; 0.0011

Now look at this entry.
Lookup result for Nanobody 11B06 (VHH, tagged as tested (anti-Flag detection, IMAC)) VHH: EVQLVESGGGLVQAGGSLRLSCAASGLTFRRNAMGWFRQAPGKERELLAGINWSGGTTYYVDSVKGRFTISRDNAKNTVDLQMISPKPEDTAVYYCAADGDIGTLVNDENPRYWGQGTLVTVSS ; measured koff: 0.00017
